Hello, the source for this data is ChEMBL document CHEMBL4400519, in case you need it.

Measured on: Cannabinoid receptor (Mus musculus) (UniProt P47746+P47936)
Sequence (P47746 whole entry, looked up): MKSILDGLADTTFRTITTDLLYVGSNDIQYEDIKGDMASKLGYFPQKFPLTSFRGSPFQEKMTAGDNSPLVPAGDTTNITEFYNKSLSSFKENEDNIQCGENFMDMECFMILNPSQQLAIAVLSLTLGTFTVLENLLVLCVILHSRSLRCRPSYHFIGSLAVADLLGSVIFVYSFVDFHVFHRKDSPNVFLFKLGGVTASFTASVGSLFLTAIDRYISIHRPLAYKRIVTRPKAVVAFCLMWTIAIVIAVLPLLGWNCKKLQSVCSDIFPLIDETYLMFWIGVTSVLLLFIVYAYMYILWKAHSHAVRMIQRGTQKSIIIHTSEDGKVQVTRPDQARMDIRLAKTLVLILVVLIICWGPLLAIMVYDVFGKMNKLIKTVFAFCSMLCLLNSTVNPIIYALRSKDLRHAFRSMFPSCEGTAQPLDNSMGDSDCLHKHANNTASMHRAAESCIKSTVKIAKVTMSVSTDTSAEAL
Sequence (P47936 whole entry, looked up): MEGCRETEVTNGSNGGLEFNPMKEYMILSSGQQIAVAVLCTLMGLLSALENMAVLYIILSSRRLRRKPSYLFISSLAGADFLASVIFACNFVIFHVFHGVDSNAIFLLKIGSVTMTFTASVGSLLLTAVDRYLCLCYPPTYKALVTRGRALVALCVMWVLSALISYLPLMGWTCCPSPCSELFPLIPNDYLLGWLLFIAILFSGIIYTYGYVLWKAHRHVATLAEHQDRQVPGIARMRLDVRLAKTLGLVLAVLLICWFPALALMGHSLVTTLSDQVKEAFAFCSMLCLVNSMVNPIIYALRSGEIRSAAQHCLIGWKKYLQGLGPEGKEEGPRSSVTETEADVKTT
Method description: Agonist activity at cannabinoid receptor in ICR mouse vas deferens assessed as inhibition of electrically induced contractions at 2.7 x 10^-6 M after 10 mins relative to control
Type: protein assay
Measured property: inhibition (%)
Number only, in %; omit the unit.

INSERT INTO measurements (smiles_input, units, meas_value) VALUES
  ('O=C(c1cccc2ccccc12)n1nc(OCCCN2CCCCC2)c2ccccc21', '%', 16),
  ('Cc1c(C(=O)c2cccc3ccccc23)c2cccc3c2n1[C@H](CN1CCOCC1)CO3', '%', 61.8),
  ('O=C(c1ccccc1Cl)n1nc(OCCCN2CCCCC2)c2ccccc21', '%', 13);

Q: Requested field: inhibition. Item: O=C(c1cccc2ccccc12)n1nc(OCCCN2CCCC2)c2ccccc21
A: 11.3
